EXPERIMENTAL PROTOCOL: Solubility of the polymorphs at different pH (HPLC assay)
Assay type: physicochemical
PARTICULARS: hydrochloric acid buffer, pH 1.2, simulated gastric fluid, thermodynamic from solid, pH 1.2; read-out: Solubility, Initial evaluation
ASSAY READOUT: solubility at 30 min (µg/mL)
Return type: number; implicit unit µg/mL.

Give solubility at 30 min for the following compound: COCCCC(=O)NCc1ccc(C(F)(F)F)cc1 [Polymorphic Form A]
153

* * *

EXPERIMENTAL PROTOCOL: Acute toxicity in rat
PARTICULARS: in vivo, oral, os, single, dose-range 2000-4000
ASSAY READOUT: LD50

Give LD50 for the following compound: COCCCC(=O)NCc1ccc(C(F)(F)F)cc1 [Polymorphic Form A]
> 4000 mg/kg

* * *

EXPERIMENTAL PROTOCOL: Acute toxicity in mouse
PARTICULARS: in vivo, oral, os, single, dose-range 2000-4000
ASSAY READOUT: LD50

Give LD50 for the following molecule: COCCCC(=O)NCc1ccc(C(F)(F)F)cc1 [Polymorphic Form A]
> 4000 mg/kg

* * *

EXPERIMENTAL PROTOCOL: Solubility of the polymorphs at different pH (HPLC assay)
Type: physicochemical
PARTICULARS: water, thermodynamic from solid, Water; read-out: Solubility, Initial evaluation
ASSAY READOUT: solubility at 30 min (µg/mL)
Return type: number; implicit unit µg/mL.

Give solubility at 30 min for the following compound: COCCCC(=O)NCc1ccc(C(F)(F)F)cc1 [Polymorphic Form A]
138

* * *

EXPERIMENTAL PROTOCOL: Solubility of the polymorphs at different pH (HPLC assay)
Type: physicochemical
PARTICULARS: alkaline phosphate buffer, pH 8, aqueous buffer, thermodynamic from solid, pH 8.0; read-out: Solubility, After 24 hours
ASSAY READOUT: solubility at 24 h (µg/mL)
Return type: number; implicit unit µg/mL.

Give solubility at 24 h for the following molecule: COCCCC(=O)NCc1ccc(C(F)(F)F)cc1 [Polymorphic Form A]
142

* * *

EXPERIMENTAL PROTOCOL: Solubility of the polymorphs at different pH (HPLC assay)
Assay type: physicochemical
PARTICULARS: phosphate buffer, pH 7.4, aqueous buffer, thermodynamic from solid, pH 7.4; read-out: Solubility, Initial evaluation
ASSAY READOUT: solubility at 30 min
Respond with a number, then the unit of measure.

Give solubility at 30 min for the following compound: COCCCC(=O)NCc1ccc(C(F)(F)F)cc1 [Polymorphic Form A]
117 µg/mL

* * *

EXPERIMENTAL PROTOCOL: Solubility of the polymorphs at different pH (HPLC assay)
Format: physicochemical
PARTICULARS: hydrochloric acid buffer, pH 1.2, simulated gastric fluid, thermodynamic from solid, pH 1.2; read-out: Solubility, After 24 hours
ASSAY READOUT: solubility at 24 h (µg/mL)
Return type: number; implicit unit µg/mL.

Give solubility at 24 h for the following compound: COCCCC(=O)NCc1ccc(C(F)(F)F)cc1 [Polymorphic Form A]
160

* * *

EXPERIMENTAL PROTOCOL: Solubility of the polymorphs at different pH (HPLC assay)
Assay type: physicochemical
PARTICULARS: water, thermodynamic from solid, Water; read-out: Solubility, After 24 hours
ASSAY READOUT: solubility at 24 h (µg/mL)
Return type: number; implicit unit µg/mL.

Give solubility at 24 h for the following molecule: COCCCC(=O)NCc1ccc(C(F)(F)F)cc1 [Polymorphic Form A]
164

The origin of these recorded values is patent USRE47078E1.
